Experimental Details: Solubility in aqueous buffer solution at >1 uM
Format: physicochemical
Quantity Measured: solubility

Please review the entries below; each comes with its answer.
- Chem Smiles: "COC(=O)[C@H](Cc1ccccc1)NC(=O)C[C@H](O)[C@H](Cc1ccccc1)NC(=O)OC(C)(C)C"
  Result: "soluble"
- Chem Smiles: "CC(C)[C@H](NC(=O)C[C@H](O)[C@H](Cc1ccccc1)NC(=O)OC(C)(C)C)C(=O)N[C@H]1CO[C@H]2[C@@H]1OC[C@H]2OCc1ccccc1"
  Result: "Insoluble"
- Chem Smiles: "CC(C)(C)OC(=O)N[C@@H](Cc1ccccc1)[C@@H](O)CC(=O)N1CCC[C@H]1C(=O)O"
  Result: "soluble"
- Chem Smiles: "CC(C)[C@H](NC(=O)C[C@H](O)[C@H](Cc1ccccc1)NC(=O)OC(C)(C)C)C(=O)O"
  Result: "soluble"
- Chem Smiles: "COC(=O)[C@@H]1CCCN1C(=O)C[C@H](O)[C@H](Cc1ccccc1)NC(=O)OC(C)(C)C"
  Result: "soluble"

Exercise: Data request, read-out solubility, for `CC(C)(C)OC(=O)N[C@@H](Cc1ccccc1)[C@@H](O)CC(=O)N1CCC[C@H]1C(=O)N[C@H]1CO[C@H]2[C@@H]1OC[C@H]2OCc1ccccc1`
Solution: Insoluble

Exercise: Item `CC(C)(C)OC(=O)N[C@@H](Cc1ccccc1)[C@@H](O)CC(=O)N[C@@H](Cc1ccccc1)C(=O)N[C@H]1CO[C@H]2[C@@H]1OC[C@H]2OCc1ccccc1` has what recorded solubility?
Solution: Insoluble

Exercise: I have this molecule here, `CC(C)(C)OC(=O)N[C@@H](Cc1ccccc1)[C@@H](O)CC(=O)N[C@@H](Cc1ccccc1)C(=O)O` , and I need its recorded solubility.
Solution: soluble

Exercise: Reported solubility, molecule `COC(=O)[C@@H](NC(=O)C[C@H](O)[C@H](Cc1ccccc1)NC(=O)OC(C)(C)C)C(C)C` : ____
Solution: soluble
